tested on: astro; assay: Drug repurposing screens with cells derived from glioblastoma tumor samples (AID 1345199); settings: viability, ATP luminescence, 48 h; series mostly up to 45.9 µM; note: nearly all actives have a fitted effect of over 40% in size
Results filed as inconclusive are left out. Active and inactive are the calls of the source. Calls come from the whole dose curve; as a rule, active = well fitted inhibition curve with a large enough effect; inconclusive = small, poorly fitted or top-dose-only effect; inactive = flat fitted curve, though single readings scatter.
Possible outcomes: active, inactive

compound	assigned.label
CCC1(CC)C(=O)NC(=O)N(C)C1=O	inactive
CCC1(C)CC(=O)NC(=O)C1	inactive
CC(=O)O[C@H]1C[C@H](O[C@H]2[C@@H](O)C[C@H](O[C@H]3[C@@H](O)C[C@H](OC4CC[C@@]5(C)[C@H](CC[C@@H]6[C@@H]5CC[C@]5(C)[C@@H](C7=CC(=O)OC7)CC[C@]65O)C4)O[C@@H]3C)O[C@@H]2C)O[C@H](C)[C@H]1O[C@@H]1O[C@H](CO)[C@@H](O)[C@H](O)[C@H]1O (some centres undefined)	active
C[C@]12CC[C@H]3[C@@H](CC[C@@]45O[C@@H]4C(O)=C(C#N)C[C@]35C)[C@@H]1CC[C@@H]2O	inactive
[Cl-].[Cl-].[Hg+2]	active
O=[N+]([O-])C(Br)(CO)CO	active
O=C(O)C(Cl)(Cl)Cl	inactive
CCN(CC)C(=O)N[C@H]1C[C@@H]2c3cccc4[nH]cc(c34)C[C@H]2N(C)C1	inactive
CN[C@H]1C[C@@H](N)[C@H](O)[C@@H](O[C@@H]2O[C@H](CO)[C@H](O)[C@@H]3OC4(O[C@H]23)O[C@H](C(N)CO)[C@H](O)[C@H](O)[C@H]4O)[C@@H]1O (some centres undefined)	inactive
